Tested on: RET (human), P07949 [V804L]
Sequence (P07949 whole entry V804L, looked up): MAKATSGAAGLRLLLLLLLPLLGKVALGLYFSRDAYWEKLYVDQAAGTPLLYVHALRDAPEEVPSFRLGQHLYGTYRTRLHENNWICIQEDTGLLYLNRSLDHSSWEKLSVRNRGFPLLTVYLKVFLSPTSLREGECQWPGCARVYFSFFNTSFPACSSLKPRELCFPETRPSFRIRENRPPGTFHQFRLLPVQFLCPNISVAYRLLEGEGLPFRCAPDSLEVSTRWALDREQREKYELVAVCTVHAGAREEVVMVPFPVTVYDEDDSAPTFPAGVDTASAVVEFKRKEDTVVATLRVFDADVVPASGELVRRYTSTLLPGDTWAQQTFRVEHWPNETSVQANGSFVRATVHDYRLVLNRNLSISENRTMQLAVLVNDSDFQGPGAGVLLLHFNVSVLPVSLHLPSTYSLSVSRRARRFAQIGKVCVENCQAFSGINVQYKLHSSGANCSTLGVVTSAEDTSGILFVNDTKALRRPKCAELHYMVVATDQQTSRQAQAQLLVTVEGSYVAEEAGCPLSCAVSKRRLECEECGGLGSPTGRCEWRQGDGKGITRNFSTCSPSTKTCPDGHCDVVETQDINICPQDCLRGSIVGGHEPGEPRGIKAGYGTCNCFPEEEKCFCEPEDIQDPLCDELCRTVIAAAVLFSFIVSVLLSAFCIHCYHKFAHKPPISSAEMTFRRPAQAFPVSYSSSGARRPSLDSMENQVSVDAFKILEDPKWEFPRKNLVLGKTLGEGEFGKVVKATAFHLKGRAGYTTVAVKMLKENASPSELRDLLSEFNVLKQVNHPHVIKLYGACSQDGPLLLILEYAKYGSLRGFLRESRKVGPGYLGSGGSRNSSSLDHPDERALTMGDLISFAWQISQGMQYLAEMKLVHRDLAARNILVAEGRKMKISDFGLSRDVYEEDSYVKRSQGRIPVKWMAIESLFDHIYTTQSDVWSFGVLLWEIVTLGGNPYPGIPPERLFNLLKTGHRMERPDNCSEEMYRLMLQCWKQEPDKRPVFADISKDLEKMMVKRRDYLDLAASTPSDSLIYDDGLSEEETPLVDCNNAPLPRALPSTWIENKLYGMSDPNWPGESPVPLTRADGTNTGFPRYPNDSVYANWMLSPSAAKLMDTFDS
Assay: KINOMEscan competition binding
Conditions: compound 1.0 µM
Measured kinase still bound, per cent of control values are reported for all entries that follow.
Give just the numeric value; % need not be written.

Answered cases to consult:
1. CN(C)C/C=C/C(=O)Nc1cccc(C(=O)Nc2ccc(Nc3nccc(-c4cccnc4)n3)cc2)c1; 100
2. CN(C)C/C=C/C(=O)Nc1cccc(C(=O)Nc2ccc(Nc3nccc(/C(C#N)=C4\Nc5ccccc5S4)n3)cc2)c1; 100
3. Cc1cc(NC(=O)c2cccc(NC(=O)/C=C/CN(C)C)c2)ccc1Nc1nccc(-c2cccnc2)n1; 100

Next item in the queue.
Look up and report measured kinase still bound, per cent of control for this entry: "CN(C)C/C=C/C(=O)Nc1cccc(C(=O)Nc2ccc(Nc3nccc(-c4c(-c5ccccc5)nn5ccccc45)n3)cc2)c1"
89

====

Target: PLK4 (human) (UniProt O00444)
Sequence (O00444 whole entry, looked up): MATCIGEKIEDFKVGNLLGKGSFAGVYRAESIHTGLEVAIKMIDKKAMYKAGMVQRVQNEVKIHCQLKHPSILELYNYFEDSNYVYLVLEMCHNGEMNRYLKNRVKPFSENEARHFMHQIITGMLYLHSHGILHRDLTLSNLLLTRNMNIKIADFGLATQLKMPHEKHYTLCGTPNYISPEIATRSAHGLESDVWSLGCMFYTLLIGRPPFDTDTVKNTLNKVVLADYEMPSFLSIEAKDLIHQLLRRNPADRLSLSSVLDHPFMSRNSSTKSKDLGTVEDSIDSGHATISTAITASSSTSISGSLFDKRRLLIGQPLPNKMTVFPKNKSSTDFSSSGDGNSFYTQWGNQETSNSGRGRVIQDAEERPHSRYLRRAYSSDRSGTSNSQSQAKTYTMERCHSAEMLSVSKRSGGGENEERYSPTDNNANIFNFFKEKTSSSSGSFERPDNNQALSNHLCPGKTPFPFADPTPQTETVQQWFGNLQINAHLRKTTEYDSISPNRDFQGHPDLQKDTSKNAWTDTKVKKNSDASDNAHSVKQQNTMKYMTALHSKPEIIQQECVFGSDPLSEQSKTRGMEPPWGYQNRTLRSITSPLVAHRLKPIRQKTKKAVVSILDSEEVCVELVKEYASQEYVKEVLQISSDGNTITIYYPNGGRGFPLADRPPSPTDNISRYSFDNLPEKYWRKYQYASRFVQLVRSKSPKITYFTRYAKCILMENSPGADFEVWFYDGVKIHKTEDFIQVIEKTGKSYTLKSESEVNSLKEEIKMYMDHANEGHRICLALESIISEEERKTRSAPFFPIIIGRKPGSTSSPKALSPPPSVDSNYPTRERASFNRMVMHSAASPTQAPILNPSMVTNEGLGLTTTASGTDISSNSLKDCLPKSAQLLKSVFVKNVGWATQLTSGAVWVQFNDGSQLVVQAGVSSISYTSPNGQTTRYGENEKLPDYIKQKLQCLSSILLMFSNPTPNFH
Test: KINOMEscan competition binding
Conditions: compound 1.0 µM
Reported kinase still bound, per cent of control values are given for each entry in this list.
Answer format: numeric, % implied, no suffix.

1. CN(C)C/C=C/C(=O)Nc1cccc(C(=O)Nc2ccc(Nc3nccc(-c4cccnc4)n3)cc2)c1; 52

Note down kinase still bound, per cent of control recorded for "Cc1cc(NC(=O)c2cccc(NC(=O)/C=C/CN(C)C)c2)ccc1Nc1nccc(-c2cccnc2)n1"
58

Return reported kinase still bound, per cent of control. Input molecule: "CN(C)C/C=C/C(=O)Nc1cccc(C(=O)Nc2ccc(Nc3nccc(-c4c(-c5ccccc5)nn5ccccc45)n3)cc2)c1"
92

Write down kinase still bound, per cent of control measured for item "CN(C)C/C=C/C(=O)Nc1cccc(C(=O)Nc2ccc(Nc3nccc(/C(C#N)=C4\Nc5ccccc5S4)n3)cc2)c1"
97

====

Target: MAP3K9 (human)
measured endpoint: IC50
The answer consists of two parts: a number and, after it, its unit.

1) CN(C)C/C=C/C(=O)Nc1cccc(C(=O)Nc2ccc(Nc3nccc(-c4c(-c5ccccc5)nn5ccccc45)n3)cc2)c1; 45 nM

Identify measured IC50 obtained with MAP3K9 (human) for "CN(C)C/C=C/C(=O)Nc1cccc(C(=O)Nc2ccc(Nc3nccc(/C(C#N)=C4\Nc5ccccc5S4)n3)cc2)c1" .
104 nM

====

Tested on: EGFR (human), P00533 [G719C]
Assay: KINOMEscan competition binding
Conditions: compound 1.0 µM
measured endpoint: kinase still bound, per cent of control
Please append the unit to your numeric answer.

Take a look at these entries with their results.
1) CN(C)C/C=C/C(=O)Nc1cccc(C(=O)Nc2ccc(Nc3nccc(/C(C#N)=C4\Nc5ccccc5S4)n3)cc2)c1; 86%
2) Cc1cc(NC(=O)c2cccc(NC(=O)/C=C/CN(C)C)c2)ccc1Nc1nccc(-c2cccnc2)n1; 81%
3) CN(C)C/C=C/C(=O)Nc1cccc(C(=O)Nc2ccc(Nc3nccc(-c4cccnc4)n3)cc2)c1; 48%

We now examine a further compound.
Return reported kinase still bound, per cent of control. Input compound: "CN(C)C/C=C/C(=O)Nc1cccc(C(=O)Nc2ccc(Nc3nccc(-c4c(-c5ccccc5)nn5ccccc45)n3)cc2)c1"
0.55%

====

Target: LIMK1 (human)
Test: KINOMEscan competition binding
Conditions: compound 1.0 µM
Some compounds, each annotated with its measured kinase still bound, per cent of control.
Answer with a number only, understood to be in %.

# example entries with known answers
1) CN(C)C/C=C/C(=O)Nc1cccc(C(=O)Nc2ccc(Nc3nccc(-c4c(-c5ccccc5)nn5ccccc45)n3)cc2)c1; 100
2) Cc1cc(NC(=O)c2cccc(NC(=O)/C=C/CN(C)C)c2)ccc1Nc1nccc(-c2cccnc2)n1; 74
3) CN(C)C/C=C/C(=O)Nc1cccc(C(=O)Nc2ccc(Nc3nccc(-c4cccnc4)n3)cc2)c1; 71

Please look at the following compound next.
Assign kinase still bound, per cent of control to the following record: "CN(C)C/C=C/C(=O)Nc1cccc(C(=O)Nc2ccc(Nc3nccc(/C(C#N)=C4\Nc5ccccc5S4)n3)cc2)c1"
100
